Tested on: Cabbage Looper [Trichoplusia ni (Hubner)]
test.method.notes: Cabbage looper insecticidal test
Type: in vivo
test.settings: second-instar larvae, percent in solution; 3-5 days
parameter: LC50, CL

- compound: "CC(C)C(=Nc1ccc(F)cc1)OCCc1cccc(Oc2ccccc2)c1 [Compound 456]"
  LC50, CL: "0.017%"
- compound: "ClCC(=Nc1ccc(Cl)cc1)OCc1cccc(Oc2ccccc2)c1 [Compound 31]"
  LC50, CL: "0.05%"
- compound: "Cc1cc(N=C(OCc2cccc(Oc3ccc(F)cc3)c2)C(C)C)ccc1F [Compound 236]"
  LC50, CL: "0.0018%"
- compound: "CC(C)C(=Nc1ccc2c(c1)OCO2)OCc1cccc(Oc2ccccc2F)c1 [Compound 190]"
  LC50, CL: "0.0004%"
- compound: "CC(C)C(=Nc1cccc(I)c1)OCc1cccc(Oc2ccc(Cl)cc2)c1 [Compound 389]"
  LC50, CL: "0.00069%"

I am curious: what LC50, CL value has been reported for C=C(C)C(=Nc1ccc(F)c(Cl)c1)OCc1ccc(F)c(Oc2ccc(Cl)cc2)c1 [Compound 415] ?
0.00075%

What does the data say about its LC50, CL? Entry: FC(F)(F)c1ccc(Oc2ccc(COC(=Nc3ccc(Cl)cc3)C(Cl)Cl)cc2)nc1 [Compound 453]
0.1%

What LC50, CL value was documented for this compound, CC(C)(C)C(=Nc1cccc(Cl)c1)OCc1cccc(Oc2ccccc2)c1 [Compound 12] ?
0.008%

Return reported LC50, CL; argument: CSc1ccc(N=C(OCc2cccc(Oc3ccccc3)c2)C(Cl)Cl)cc1 [Compound 141]
< 0.1%

For CC(C)C(=Nc1cccc(C(F)(F)F)c1)OCc1ccc(F)c(Oc2ccccc2)c1 [Compound 80] , what is its reported LC50, CL?
0.0003%

For the compound CC(C)C(=Nc1ccc(F)c(Cl)c1)OCc1cccc(Oc2ccccn2)c1 [Compound 549] , what LC50, CL is on record?
> 0.1%

Recorded LC50, CL for CC(C)C(=Nc1ccc(F)c(F)c1)OCc1ccc(F)c(Oc2ccccc2)c1 [Compound 336] , please?
0.00017%

Name the recorded LC50, CL for CC(C)C(=Nc1ccc2c(c1)OCO2)OCc1cccc(Oc2ccc(Cl)cc2)c1 [Compound 240] .
0.0003%

// LC50, CL lookup, key: FC(F)(F)C(=Nc1ccc(Cl)cc1)OCc1cccc(Oc2ccccc2)c1 [Compound 35]
0.008%

For the compound CC(C)C(=Nc1ccc(F)cc1)OCc1cccc(Oc2ccc(Br)cc2)c1 [Compound 259] , what LC50, CL is on record?
0.0003%

Fill in the blank: the reported LC50, CL of CC(C)C(=Nc1ccc(OCC(F)(F)F)c(Cl)c1)OCc1ccc(F)c(Oc2ccccc2)c1 [Compound 424] is ____.
0.00038%

// query LC50, CL value for entry CC(C)C(=Nc1ccc(F)c(Cl)c1)OCc1cc(Oc2ccc(F)cc2)ccc1F [Compound 230]
0.0004%

Which measured LC50, CL value corresponds to CSc1ccc(Oc2cccc(COC(=Nc3ccc(F)cc3)C(C)C)c2)cc1 [Compound 257] ?
0.008%

Look up LC50, CL for this compound: CC(C)C(=Nc1ccc(OC(F)(F)C(F)Cl)cc1)OCc1cccc(Oc2ccccc2)c1 (centres unmarked) [Compound 418]
> 0.1%

Any idea what LC50, CL was measured for Cc1ccc(Cl)c(N=C(OCc2cccc(Oc3ccccc3)c2)C(C)C)c1 [Compound 93] ?
0.005%

Requested read-out: LC50, CL. Entry: CC(C)C(=Nc1cccc(Oc2ccccn2)c1)OCc1cccc(Oc2ccccc2)c1 [Compound 114]
< 0.1%

Given the entry FC(F)(F)c1ccc(N=C(OCc2cccc(Oc3ccccc3)c2)C2CC2)cc1 [Compound 62] , report its measured LC50, CL.
0.005%

Return reported LC50, CL; argument: CCC(C)C(=Nc1ccc(F)c(Cl)c1)OCc1cccc(Oc2ccc(F)cc2)c1 (centres unmarked) [Compound 210]
0.00028%

Value lookup for LC50, CL; key = CC(C)C(=Nc1ccc(Cl)c(Cl)c1)OCc1cccc(Oc2ccccc2)c1 [Compound 14]
0.004%

So what does the record say about LC50, CL for COc1cc(N=C(OCc2cccc(Oc3ccccc3)c2)C(C)C)cc(OC)c1OC [Compound 248] ?
0.02%

I have this compound here, CC(C)C(=Nc1ccc(I)cc1)OCc1cccc(Oc2ccccc2)c1 [Compound 137] , and I need its recorded LC50, CL.
0.003%

Quick one: LC50, CL for COc1ccc(Oc2cccc(COC(=Nc3ccc(Cl)c(Cl)c3)C(C)C)c2)cc1 [Compound 223] ?
0.008%

Look at this compound and give its reported LC50, CL. CC(C)C(=Nc1ccc(I)c(Cl)c1)OCc1cccc(Oc2ccc(Cl)cc2)n1 [Compound 471]
0.00018%

Which LC50, CL is listed for CC(C)C(=Nc1ccc(F)c(Cl)c1)OCc1cccc(Oc2ccc(Br)cc2)n1 [Compound 492] ?
0.00028%

Where do these numbers come from? They come from patent US5070210A.
